- TESTED_TARGET: T1, cMetECDHis (human, UniProt P08581 25-932, limits assumed, biotinylated in the cross-block ELISA of Example 17)
- T1 construct: Expressed in HEK-293F cells; also called soluble cMetECDHis; biotinylated cMetECDHis
- ASSAY_COMMENT: cross-block ELISA; competitor 006
PROPERTY_NAME: residual binding, % of no competitor
# do not omit the unit; it follows the number

Worked cases, answers included:
>>> experimental_value("IgG1-024 (antibody, V domains shown, also called TH1016-024; PC1016-024) VH: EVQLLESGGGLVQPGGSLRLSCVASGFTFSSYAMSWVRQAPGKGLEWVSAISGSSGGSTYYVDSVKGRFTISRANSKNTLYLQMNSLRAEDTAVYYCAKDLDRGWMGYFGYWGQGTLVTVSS VL: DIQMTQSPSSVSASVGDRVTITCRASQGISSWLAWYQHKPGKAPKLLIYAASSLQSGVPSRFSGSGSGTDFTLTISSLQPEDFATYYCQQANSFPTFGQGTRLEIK")
"101%"
>>> experimental_value("IgG1-1016-058 (antibody, V domains shown, also called IgG1-058; TH1016-058) VH: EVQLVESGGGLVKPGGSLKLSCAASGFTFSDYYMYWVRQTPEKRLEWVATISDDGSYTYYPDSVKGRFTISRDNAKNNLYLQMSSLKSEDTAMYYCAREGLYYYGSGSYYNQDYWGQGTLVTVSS VL: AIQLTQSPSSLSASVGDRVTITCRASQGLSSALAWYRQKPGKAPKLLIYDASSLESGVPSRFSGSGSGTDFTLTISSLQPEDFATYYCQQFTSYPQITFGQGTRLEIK")
"43.6%"
>>> experimental_value("anti-c-Met HuMab 045 (IgG1) (antibody, V domains shown, also called TH1016-045; PC1016-045) VH: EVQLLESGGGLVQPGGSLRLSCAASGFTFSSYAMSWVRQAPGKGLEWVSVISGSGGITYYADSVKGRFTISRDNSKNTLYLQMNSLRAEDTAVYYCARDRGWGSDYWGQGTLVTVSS VL: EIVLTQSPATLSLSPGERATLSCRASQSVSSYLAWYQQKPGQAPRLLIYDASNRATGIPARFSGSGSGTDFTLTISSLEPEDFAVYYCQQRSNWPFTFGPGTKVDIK")
"111%"

Challenge: Consider the binder anti-c-Met HuMab 035 (IgG1) (antibody, V domains shown, also called P1016-035; TH1016-035-D09) VH: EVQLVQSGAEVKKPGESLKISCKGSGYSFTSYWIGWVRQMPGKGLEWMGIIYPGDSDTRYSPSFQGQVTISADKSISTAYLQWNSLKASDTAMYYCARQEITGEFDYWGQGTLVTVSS VL: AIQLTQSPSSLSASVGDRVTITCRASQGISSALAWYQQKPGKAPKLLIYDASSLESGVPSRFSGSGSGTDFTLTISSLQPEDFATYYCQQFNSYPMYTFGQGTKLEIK and give its measured residual binding, % of no competitor.
Response given: 33%

Challenge: Give its residual binding, % of no competitor value. Item: anti-c-Met HuMab 008 (IgG1) (antibody, V domains shown, also called TH1016-008; PC1016-008) VH: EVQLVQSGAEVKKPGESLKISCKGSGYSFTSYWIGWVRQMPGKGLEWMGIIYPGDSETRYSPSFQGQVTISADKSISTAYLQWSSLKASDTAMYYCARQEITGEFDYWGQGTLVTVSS VL: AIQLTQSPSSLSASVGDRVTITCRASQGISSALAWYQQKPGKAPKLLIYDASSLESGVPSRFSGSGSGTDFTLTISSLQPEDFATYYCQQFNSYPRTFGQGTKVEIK
Response given: 47.3%
